assay: growth suppression of yeast trafficking mutant, preliminary HTS, modulators of trafficking downstream of Golgi apparatus project, 1536-format plate, OD 615 nm (AID 637); conditions: yeast transport mutant growth, absorbance 615 nm, 18 h; active compounds read high
OBSERVABLE: inhibition (%)
Numeric only. Scale: %

# COMPOUND, inhibition, %
rows = [
    ("CC(=O)c1cc(-c2ccc(F)cc2)n(CCC(=O)Nc2cc(C)[nH]n2)c1C", 2.46),
    ("COc1ccc(S(=O)(=O)N2CCN(CC(=O)Nc3ccc(F)c(F)c3)CC2)cc1", -1.94),
    ("O=C(CCn1c(=O)sc2ccccc21)Nc1cccnc1", 1.48),
]

Q: Given the compound Cn1c2c(c(=O)n(C)c1=O)C(CC(=O)Nc1ccccc1)C(=O)N2 (stereo not given) , write its reported inhibition.
Result: 8.57

Q: Tell me inhibition reported for CCOC(=O)N1CCN(C(=O)COc2ccc(S(=O)(=O)NC3CCCCC3)cc2C)CC1
Result: -1.31

* * *

assay: growth suppression of yeast trafficking mutant, preliminary HTS, modulators of trafficking downstream of Golgi apparatus project, 1536-format plate, OD 615 nm (AID 637); settings: yeast transport mutant growth, absorbance 615 nm, 18 h; active compounds read high
OBSERVABLE: inhibition (%)
Quick reminder: number only, in %, skip the unit.

Please review the entries below; each comes with its answer.
# COMPOUND, OBSERVABLE, RESULT VALUE
data = [
    ("CCOC(=O)C1=C(c2ccccc2)Nc2nc(C)nn2C1c1cccc(OC)c1OC (stereo not drawn)", "inhibition", -0.66),
    ("CC(C)C(c1nnnn1CC1CCCO1)N1CCN(Cc2ccc3c(c2)OCO3)CC1 (stereo not drawn)", "inhibition", -3.97),
    ("Cc1c(C(=O)OCC(C)(C)CN(C)C)oc2ccccc12", "inhibition", -4.6),
    ("CCC(C(=O)OCC(=O)Nc1c(C)n(C)n(-c2ccccc2)c1=O)c1ccccc1 (stereo not drawn)", "inhibition", -4.76),
    ("COc1ccccc1Nc1ccc(C(=O)NC2CCCCC2)cn1", "inhibition", -3.11),
]

Q: Please list inhibition recorded for the compound CCOC(=O)N1CCN(C(=O)CN(c2ccc(C)cc2)S(=O)(=O)c2c(C)noc2C)CC1
Result: 6.51

Q: Look up and report measured inhibition for this entry: O=C(OCC#CCSc1nc2ccccc2o1)c1ccco1
Result: -7.7

Q: Hello, please tell me recorded inhibition for this one: O=c1[nH]c2c(s1)C(c1ccco1)C1C3CCC(C3)C1S2 (stereo not drawn)
Result: 2.73

Q: Return inhibition for the following compound: CC(=O)N1CCN(S(=O)(=O)c2cccc(C(=O)Nc3ccc4c(c3)CCC4)c2)CC1
Result: 5

Q: Kindly indicate its recorded inhibition. Item: CN(C)C(=O)CN(c1ccc(F)c(Cl)c1)S(C)(=O)=O
Result: -7.05

Q: Hello, please tell me recorded inhibition for this one: O=C(NCCc1ccccc1)C1CCN(S(=O)(=O)N2CCC3(CC2)OCCO3)CC1
Result: 0.16

Q: Report inhibition for Cc1cc2oc(=O)cc(C)c2c(=O)o1
Result: -3.83

* * *

test: SK-BR-3 cell growth inhibitors, pilot screen, 24 h, human (AID 572); conditions: SK-BR-3 viability, CellTiter-Glo luminescence, at 10 µM, active compounds read low;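 further: compound exposure lasted between 18 and 24 h rather than exactly 24 h; 100% = carrier-treated control wells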
Overview of reported viability across a group of molecules:
Give the number; % is assumed, so skip it.

# MOLECULE, UNITS OF MEASURE, viability
records = [
    ("CCC1Oc2ccccc2N(CC(=O)Nc2ccc(OC)cc2OC)C1=O (configuration not stated)", "%", 90.5),
    ("CC1CN(S(=O)(=O)c2cccc(C(=O)OCc3cc(=O)oc4cc(O)ccc34)c2)CC(C)O1 (configuration not stated)", "%", 80.5),
    ("Cc1cc(NC(=O)CCCN2C(=O)c3cccnc3C2=O)no1", "%", 92),
    ("COc1ccc(OC)c(S(=O)(=O)Nc2ccccc2C(=O)O)c1", "%", 109),
    ("Cc1ccc(S(=O)(=O)Nc2nc3ccccc3nc2NCc2ccco2)cc1", "%", 114),
]

Q: // fetch viability given entry COc1cccc(-n2c(C)nc3c(cnn3-c3ccc(C)cc3)c2=O)c1
Result: 86

Q: Please supply the value of reported viability for the item CC(C)c1cc(C(=O)NCc2ccco2)no1
Result: 101

Q: Indicate its recorded viability; the molecule in question is COc1ccc(-c2[nH]nc3c2C(c2ccccc2OC(=O)N2CCOCC2)C(C#N)=C(N)O3)cc1 (configuration not stated)
Result: 120

Q: State its viability: COc1ccc2[nH]c(=O)c(CN(CC3CCCO3)C(=O)Nc3ccc(F)cc3)cc2c1 (configuration not stated)
Result: 84.5

Q: Given COc1ccc(CN2CC(C(=O)NCc3ccccn3)CC2=O)cc1 (configuration not stated) , respond with its viability.
Result: 92.5

Q: For O=C(Nc1ccc(F)cc1)c1cccc2c1C(=O)N(Cc1ccccn1)C2 , write its viability.
Result: 95.5

Q: Provide only the value of recorded viability for O=C1C(Cl)=C(N2CCCCC2)C(=O)N1c1ccccc1Cl
Result: 106

Q: Give viability for the following molecule: CCCOC(=O)c1[nH]c2c(c1C)C(=O)CC(c1ccc(OC)c(OC)c1)C2 (configuration not stated)
Result: 99

Q: Report viability for CC1Cc2ccccc2N1C(=O)CSc1nnc2n1C(C)(C)Cc1ccccc1-2 (configuration not stated)
Result: 79

Q: Specify measured viability for C=CCOC(=O)C(C#N)c1nc2ccccc2nc1N1CCN(Cc2ccccc2)CC1 (configuration not stated) .
Result: 94

Q: State its viability for this molecule: O=C(CN1C(=O)c2ccccc2C1=O)Nc1ccccc1C(=O)N1CCCC1
Result: 83

Q: Please look at this molecule and report its viability: CCOC(=O)c1ccc(CC2S/C(=C(\C#N)C(C)=O)NC2=O)cc1 (configuration not stated)
Result: 91.5

Q: Provide measured viability value, entry: Nc1nc(-c2ccccc2Br)cs1
Result: 91.5
